From: the supplement of paper PMC10883282

System: SYO-1
measurement_protocol: relative viability vs DMSO control (72 h) (fraction); higher = more viable cells
test_parameters: 0.00017 µM
property: relative viability
Response field accepts a number only; no unit should be typed.

Cc1ccc(C(=O)OCc2ccc([C@@H](CN)C(=O)Nc3ccc4cnccc4c3)cc2)c(C)c1 [Netarsudil] = 0.953
CCCS(=O)(=O)N[C@H]1C[C@@H](N(C)c2ncnc3[nH]ccc23)C1 [Abrocitinib] = 0.984
C#Cc1cccc(Nc2ncnc3cc(OCCOC)c(OCCOC)cc23)c1 [Erlotinib] = 0.999

SYO-1 data for NC(=O)c1cccc2cn(-c3ccc([C@@H]4CCCNC4)cc3)nc12 [Niraparib] ; its relative viability: 0.951

SYO-1 data for CNC(=O)c1cc(Oc2ccc(NC(=O)Nc3ccc(Cl)c(C(F)(F)F)c3)cc2)ccn1 [Sorafenib] ; its relative viability: 0.968

---

Let's look at some molecules and their measured relative viability.
Test system: RD
measurement_protocol: relative viability vs DMSO control (72 h) (fraction); higher = more viable cells
test_parameters: 0.00017 µM
Response field accepts a number only; no unit should be typed.

Examples with answers:
C=CC(=O)Nc1cc(Nc2nccc(-c3cn(C)c4ccccc34)n2)c(OC)cc1N(C)CCN(C)C = 1.08
CCCS(=O)(=O)N[C@H]1C[C@@H](N(C)c2ncnc3[nH]ccc23)C1 = 1.06
C[C@@H](Oc1cc(-c2cnn(C3CCNCC3)c2)cnc1N)c1c(Cl)ccc(F)c1Cl = 1.08

Shift focus to the following entry.
Lab book: relative viability of C[C@H]1Oc2cc(cnc2N)-c2c(nn(C)c2C#N)CN(C)C(=O)c2ccc(F)cc21 noted as 1.09

---

Let's look at some compounds and their measured relative viability.
Tested on: HS729
measurement_protocol: relative viability vs DMSO control (72 h) (fraction); higher = more viable cells
test_parameters: 1.111 µM

Examples with answers:
COc1cc(Nc2c(C#N)cnc3cc(OCCCN4CCN(C)CC4)c(OC)cc23)c(Cl)cc1Cl = 0.773
COc1cc2ncnc(Nc3cccc(Cl)c3F)c2cc1OC(=O)N1CCN(C)C[C@H]1C = 0.856
CCN(CCCOc1ccc2c(Nc3cc(CC(=O)Nc4cccc(F)c4)[nH]n3)ncnc2c1)CCOP(=O)(O)O = 0.8
N#Cc1ccnc(N2C(=O)CC[C@H]2C(=O)N(c2cncc(F)c2)[C@H](C(=O)NC2CC(F)(F)C2)c2ccccc2Cl)c1 = 0.982
COc1cc2nccc(Oc3ccc(NC(=O)C4(C(=O)Nc5ccc(F)cc5)CC4)cc3)c2cc1OC [Cabozantinib] = 0.64

Lab book: relative viability of CO[C@H]1C[C@@H]2CC[C@@H](C)[C@@](O)(O2)C(=O)C(=O)N2CCCC[C@H]2C(=O)O[C@H]([C@H](C)C[C@@H]2CC[C@@H](O)[C@H](OC)C2)CC(=O)[C@H](C)/C=C(\C)[C@@H](O)[C@@H](OC)C(=O)[C@H](C)C[C@H](C)/C=C/C=C/C=C/1C noted as 0.918

Lab book: relative viability of Cc1nc(Nc2ncc(C(=O)Nc3c(C)cccc3Cl)s2)cc(N2CCN(CCO)CC2)n1 noted as 0.609

---

Test system: SYO-1
measurement_protocol: relative viability vs DMSO control (72 h) (fraction); higher = more viable cells
test_parameters: 0.00152 µM
property: relative viability
Response field accepts a number only; no unit should be typed.

SYO-1 data for Cc1cccc(-c2[nH]c(CNc3ccccc3F)nc2-c2ccc3ncnn3c2)n1 ; its relative viability: 0.929

---

Tested on: MES-SA
measurement_protocol: relative viability vs DMSO control (72 h) (fraction); higher = more viable cells
test_parameters: 10 µM
property: relative viability
Response field accepts a number only; no unit should be typed.

Examples with answers:
CO[C@@H]1[C@H](N(C)C(=O)c2ccccc2)C[C@H]2O[C@]1(C)n1c3ccccc3c3c4c(c5c6ccccc6n2c5c31)C(=O)NC4 = 0.0904
Cc1ccc(NC(=O)c2ccc(CN3CCN(C)CC3)cc2)cc1Nc1nccc(-c2cccnc2)n1 = 0.658
C[C@@H]1COC(Nc2ccc3ncnc(Nc4ccc(OCc5nccs5)c(Cl)c4)c3c2)=N1 = 0.45
CC[C@@H]1C(=O)N(C)c2cnc(Nc3ccc(C(=O)N[C@H]4CC[C@H](N5CCN(CC6CC6)CC5)CC4)cc3OC)nc2N1C(C)C = 0.0076

Lab book: relative viability of Cc1nc(Nc2ncc(C(=O)Nc3c(C)cccc3Cl)s2)cc(N2CCN(CCO)CC2)n1 noted as 0.258

Lab book: relative viability of C[C@@H](Oc1cc(-c2cnn(C3CCNCC3)c2)cnc1N)c1c(Cl)ccc(F)c1Cl noted as -0.000833

Lab book: relative viability of Cc1c(F)cc(C(=O)NC2CC2)cc1-c1ccc(C(=O)NCC(C)(C)C)cn1 noted as 0.879

---

Let's look at some molecules and their measured relative viability.
Tested on: G401
measurement_protocol: relative viability vs DMSO control (72 h) (fraction); higher = more viable cells
test_parameters: 1.111 µM
Response field accepts a number only; no unit should be typed.

Examples with answers:
C#Cc1cccc(Nc2ncnc3cc(OCCOC)c(OCCOC)cc23)c1 = 1.02
C[C@H]1Oc2cc(cnc2N)-c2c(nn(C)c2C#N)CN(C)C(=O)c2ccc(F)cc21 = 1

G401 data for Cc1ccc(C(=O)OCc2ccc([C@@H](CN)C(=O)Nc3ccc4cnccc4c3)cc2)c(C)c1 ; its relative viability: 0.941

G401 data for CCN(c1cc(-c2ccc(CN3CCOCC3)cc2)cc(C(=O)NCc2c(C)cc(C)[nH]c2=O)c1C)C1CCOCC1 ; its relative viability: 1.01

G401 data for CC[C@@H]1C(=O)N(C)c2cnc(Nc3ccc(C(=O)N[C@H]4CC[C@H](N5CCN(CC6CC6)CC5)CC4)cc3OC)nc2N1C(C)C ; its relative viability: 0.338

G401 data for C1=N/C2=N/c3ccc(OCCN4CCCC4)c(c3)COC/C=C/COCc3cccc(c3)C(=C1)N2 ; its relative viability: 0.552

G401 data for Cc1cn(-c2cc(NC(=O)c3ccc(C)c(Nc4nccc(-c5cnccn5)n4)c3)cc(C(F)(F)F)c2)cn1 ; its relative viability: 1.04

G401 data for C[C@@H]1COC(Nc2ccc3ncnc(Nc4ccc(OCc5nccs5)c(Cl)c4)c3c2)=N1 ; its relative viability: 0.89

---

System: SK-ES-1
measurement_protocol: relative viability vs DMSO control (72 h) (fraction); higher = more viable cells
test_parameters: 3.333 µM
Let's look at some molecules and their measured relative viability.
Response field accepts a number only; no unit should be typed.

Examples with answers:
CN(C)C[C@@H]1CCn2cc(c3ccccc32)C2=C(C(=O)NC2=O)c2cn(c3ccccc23)CCO1 [Ruboxistaurin] = 0.74
C[C@@H](Oc1cc(-c2cnn(C3CCNCC3)c2)cnc1N)c1c(Cl)ccc(F)c1Cl [Crizotinib] = 0.0452
Cc1ccc(NC(=O)c2ccc(CN3CCN(C)CC3)cc2)cc1Nc1nccc(-c2cccnc2)n1 [Imatinib] = 0.841
Cc1cn(-c2cc(NC(=O)c3ccc(C)c(Nc4nccc(-c5cnccn5)n4)c3)cc(C(F)(F)F)c2)cn1 [Radotinib] = 1.01
Cc1c(F)cc(C(=O)NC2CC2)cc1-c1ccc(C(=O)NCC(C)(C)C)cn1 [Losmapimod] = 0.915
Cc1ccc(C(=O)OCc2ccc([C@@H](CN)C(=O)Nc3ccc4cnccc4c3)cc2)c(C)c1 [Netarsudil] = 0.761

SK-ES-1 data for CCN(CCCOc1ccc2c(Nc3cc(CC(=O)Nc4cccc(F)c4)[nH]n3)ncnc2c1)CCOP(=O)(O)O [Barasertib] ; its relative viability: 0.0649

SK-ES-1 data for COc1cc(OC)cc(N(CCNC(C)C)c2ccc3ncc(-c4cnn(C)c4)nc3c2)c1 [Erdafitinib] ; its relative viability: 0.33

---

Tested on: SW872
measurement_protocol: standardised AUC of viability dose-response curve (72 h) (fraction (0-1)); higher = less growth inhibition (more resistant)
Let's look at some compounds and their measured standardised AUC.
Response field accepts a number only; no unit should be typed.

Lab book: standardised AUC of CCN(CCCOc1ccc2c(Nc3cc(CC(=O)Nc4cccc(F)c4)[nH]n3)ncnc2c1)CCOP(=O)(O)O noted as 0.94

Lab book: standardised AUC of CN(C)C[C@@H]1CCn2cc(c3ccccc32)C2=C(C(=O)NC2=O)c2cn(c3ccccc23)CCO1 noted as 0.953

Lab book: standardised AUC of CO[C@@H]1[C@H](N(C)C(=O)c2ccccc2)C[C@H]2O[C@]1(C)n1c3ccccc3c3c4c(c5c6ccccc6n2c5c31)C(=O)NC4 noted as 0.757

Lab book: standardised AUC of CNC(=O)c1cc(Oc2ccc(NC(=O)Nc3ccc(Cl)c(C(F)(F)F)c3)cc2)ccn1 noted as 0.978

Lab book: standardised AUC of Cc1ccc(NC(=O)c2ccc(CN3CCN(C)CC3)cc2)cc1Nc1nccc(-c2cccnc2)n1 noted as 0.979

Lab book: standardised AUC of Cc1cn(-c2cc(NC(=O)c3ccc(C)c(Nc4nccc(-c5cnccn5)n4)c3)cc(C(F)(F)F)c2)cn1 noted as 0.967

Lab book: standardised AUC of CC[C@@H]1C(=O)N(C)c2cnc(Nc3ccc(C(=O)N[C@H]4CC[C@H](N5CCN(CC6CC6)CC5)CC4)cc3OC)nc2N1C(C)C noted as 0.578
